target: 5-hydroxytryptamine receptor 2A (Mus musculus); assay type: functional, cell-based;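 note: CHO-K1 cells with tagged receptor and beta-arrestin; agonist potency measured as compound-induced activation of the receptor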
Sequence (P35363 whole entry): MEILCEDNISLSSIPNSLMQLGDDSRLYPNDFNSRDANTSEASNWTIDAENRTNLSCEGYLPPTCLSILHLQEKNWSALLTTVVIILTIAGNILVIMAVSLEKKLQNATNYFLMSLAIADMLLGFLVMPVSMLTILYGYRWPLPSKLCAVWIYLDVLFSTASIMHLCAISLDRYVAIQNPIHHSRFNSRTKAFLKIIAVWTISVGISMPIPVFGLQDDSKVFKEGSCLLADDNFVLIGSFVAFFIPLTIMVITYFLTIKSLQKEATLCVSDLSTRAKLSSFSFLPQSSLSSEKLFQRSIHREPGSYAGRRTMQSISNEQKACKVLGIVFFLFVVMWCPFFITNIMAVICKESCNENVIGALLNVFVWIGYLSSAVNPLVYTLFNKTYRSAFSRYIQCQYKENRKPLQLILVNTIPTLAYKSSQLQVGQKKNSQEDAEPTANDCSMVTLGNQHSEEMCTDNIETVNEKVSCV
Counter-ions that a name gives are not always drawn. Calls of active or inactive are those of the source.
Labels: label 1 (active), label 0 (inactive)

Compound	Class
O=C1NC[C@H](Cc2ccccc2)N(C[C@H]2CCCN2C[C@H](Cc2ccc(O)cc2)N2C[C@H](Cc3ccc(O)cc3)N(CC3CCCCCC3)C(=O)C2=O)C1=O	label 1
CN(C)[C@@H]1C(O)=C(C(N)=O)C(=O)[C@@]2(O)C(O)=C3C(=O)c4c(O)ccc(Cl)c4[C@@H](O)[C@H]3C[C@@H]12 [DEMECLOCYCLINE HYDROCHLORIDE]	label 0
c1nc2nc[nH]c(N3CCN(Cc4ccc5c(c4)OCO5)CC3)c-2n1	label 1
C=CCN1CCc2c(cc(O)c(O)c2Br)[C@@H](c2ccccc2)C1	label 1

====

system: H9c2; assay: cells; format: functional, cell-based; details: Rattus norvegicus, H9c2, Myocardium;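 note: cell death induced by hydrogen peroxide oxidative stress; compound pretreatment for 60 min then peroxide exposure for 2 h; potency is for protecting the cells against peroxide damage rather than for killing them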;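 note: confirmatory concentration-response retest of ultra-high-throughput screening hits for modulation of myocardial damage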
The source made the active and inactive calls.
Classes used: YES (active), NO (inactive)

Compound String	Class
CN(C)C(=O)CSc1nc(O)c2ccccc2n1	NO
CC(=O)Nc1ccc2c(c1)nc(O)c1ccccc12	NO
CC(=O)Nc1cccc(NC(=O)c2cc(-c3cccnc3)nc3ccc(Br)cc23)c1	NO
COc1cc(-c2cc(C(=O)NCc3ccco3)c3ccccc3n2)cc(OC)c1OC	YES

====

Each entry below carries its recorded EC50.
molecular target: Zinc finger protein mex-5 (Caenorhabditis elegans, UniProt Q9XUB2); experiment: MEX-5/TCR-2 RNA interaction inhibitors, dose response, biochemical, C. elegans, fluorescence polarization (AID 1960)
The source made the active and inactive calls.
Observable: EC50

Compound	Observed
NC(=Nc1ccc(N)cc1)C(N)=Nc1ccc(N)cc1	42.8 µM (active)
Clc1cccc(CSc2nc3cc[nH]cc-3n2)c1	> 300 µM (not active)
Cc1cc(O)cc2c1C(=O)/C(=C/c1ccco1)O2	> 300 µM (not active)
Cc1n[nH]c(S/C(=C/c2ccc(-c3cccc(Cl)c3)o2)C(=O)O)n1	69.5 µM (active)
O=C1CSC(=S)N1N1C(=O)c2cccc([N+](=O)[O-])c2C1=O	24.8 µM (active)
O=C1NC(=S)N(c2ccc(F)cc2)C(=O)/C1=C/c1ccco1	11.1 µM (active)
CCOCCCNC(=O)CCC(=O)NNc1nc2ccccc2c2nc(C)nn12	1.45 µM (active)
CC(C)(C)OC(=O)NCCCCC1=CC2=CC(=O)C(C)(OC(=O)c3ccco3)C(=O)C2=CO1 (stereo not drawn)	30.3 µM (active)
CNc1c(N)n(Cc2ccccc2)c(=O)[nH]c1=O	92.1 µM (inconclusive)
N=c1c(C(=O)NC2CCCCC2)cc2c(=O)n3ccccc3nc2n1CCc1ccccc1	16.1 µM (active)
Cc1ccc2[nH]c3c(c2c1)CN(C(=O)CN1CCN(C(=O)c2ccco2)CC1)CC3	68 µM (active)
CCCCCCCCCCCCCCCCn1cc[n+](C)c1	> 300 µM (inconclusive)
COc1ccccc1Nc1nc2nonc2nc1N1CCCCC1C (stereo not drawn)	> 300 µM (not active)

====

target: Ephrin type-A receptor 4 (Mus musculus, UniProt Q03137); assay: inhibitors of EphA4 binding to KYL peptide, primary screen, biochemical, colorimetric, mouse EphA4 (AID 689); assay type: functional
Sequence (Q03137 whole entry): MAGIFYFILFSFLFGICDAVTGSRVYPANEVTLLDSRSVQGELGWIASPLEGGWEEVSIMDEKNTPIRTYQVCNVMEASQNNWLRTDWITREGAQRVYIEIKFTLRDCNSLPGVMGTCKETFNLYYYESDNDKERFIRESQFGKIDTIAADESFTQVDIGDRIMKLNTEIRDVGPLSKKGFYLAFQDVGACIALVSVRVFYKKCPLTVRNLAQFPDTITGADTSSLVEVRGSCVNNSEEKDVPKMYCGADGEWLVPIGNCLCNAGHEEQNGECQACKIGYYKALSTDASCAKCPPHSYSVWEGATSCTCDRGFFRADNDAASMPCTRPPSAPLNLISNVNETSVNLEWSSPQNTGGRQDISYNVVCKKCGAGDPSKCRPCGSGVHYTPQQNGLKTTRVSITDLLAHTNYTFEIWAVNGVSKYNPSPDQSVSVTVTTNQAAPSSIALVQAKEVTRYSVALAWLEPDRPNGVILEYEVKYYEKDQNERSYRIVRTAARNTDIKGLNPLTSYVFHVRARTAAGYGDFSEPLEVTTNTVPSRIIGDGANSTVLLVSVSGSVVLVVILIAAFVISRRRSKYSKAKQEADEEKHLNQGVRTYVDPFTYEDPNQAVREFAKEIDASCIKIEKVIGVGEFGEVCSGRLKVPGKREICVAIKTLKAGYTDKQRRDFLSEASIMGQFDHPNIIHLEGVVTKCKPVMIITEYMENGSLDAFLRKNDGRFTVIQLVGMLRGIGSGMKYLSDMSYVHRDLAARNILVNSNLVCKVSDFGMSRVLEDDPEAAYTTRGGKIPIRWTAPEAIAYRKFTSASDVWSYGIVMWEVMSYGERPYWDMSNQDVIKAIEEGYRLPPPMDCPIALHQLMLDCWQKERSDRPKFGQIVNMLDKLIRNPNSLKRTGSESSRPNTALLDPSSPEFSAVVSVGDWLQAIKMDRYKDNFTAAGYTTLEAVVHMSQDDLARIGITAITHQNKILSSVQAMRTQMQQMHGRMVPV
The source made the active and inactive calls.
Below: a set of entries, each annotated with reported IC50.

Compound String	Target Of Assay	IC50
CCN(CCCNC(=O)CN(C)S(=O)(=O)c1cccc2nsnc12)c1cccc(C)c1	Ephrin type-A receptor 4 (Mus musculus, UniProt Q03137)	> 100 µM (not active)
COc1ccc(N2Cc3cccc(C(=O)O)c3C2=O)cc1	Ephrin type-A receptor 4 (Mus musculus, UniProt Q03137)	9.05 µM (active)
O=C(NCCc1ccccc1)c1ccc2nc(-c3ccco3)c(-c3ccco3)nc2c1	Ephrin type-A receptor 4 (Mus musculus, UniProt Q03137)	21.3 µM (active)
CSc1nc(SCCO)c2sc3nc(-c4ccco4)c4c(c3c2n1)CC(C)(C)OC4	Ephrin type-A receptor 4 (Mus musculus, UniProt Q03137)	6.73 µM (active)
CC(=O)N(c1ccc2oc(=O)sc2c1)S(=O)(=O)c1ccccc1	Ephrin type-A receptor 4 (Mus musculus, UniProt Q03137)	> 100 µM (not active)

====

Measured AC50 values are reported for all entries that follow.
assay: Luminescence Cell-Based Dose Retest to Confirm Inhibitors of Cancer Stem Cells. [Related pubchem assays (depositor defined):AID2717, AID2721]; type: functional, Homo sapiens; conditions: Homo sapiens
Activity calls are given as the source filed them.
Observable: AC50

Compound	Observable	Observed
CCOc1ccc(S(=O)(=O)N2CCN=C2c2ccccc2)cc1	AC50	3.19 µM (active)
CC(C)C[C@H](NC(=O)c1[nH]cnc1C(=O)NC(c1ccccc1)c1ccccc1)C(=O)OC(C)(C)C	AC50	3.44 µM (active)
N#C/C(=C/c1ccc(O)c(O)c1)C(=O)NCc1ccc(Cl)cc1	AC50	6.32 µM (active)
O=C(Cn1cnc([N+](=O)[O-])n1)N/N=C/c1ccc(O)cc1O	AC50	19.3 µM (active)
CC(=O)c1ccc(N2CCN(c3ccc(S(=O)(=O)NCCCN(C)C)cc3[N+](=O)[O-])CC2)cc1	AC50	1.41 µM (active)
C[C@@H]1O[C@@H](O[C@H]2C[C@@H](O)[C@]3(CO)[C@H]4[C@H](O)C[C@]5(C)[C@@H](C6COC(=O)C6)CC[C@]5(O)[C@@H]4CC[C@]3(O)C2)[C@H](O)[C@H](O)[C@H]1O (stereo partly drawn)	AC50	1.46 µM (active)
CN(/N=C/c1cc(Br)cc(Br)c1O)c1cccc(C(F)(F)F)n1	AC50	5.94 µM (active)
COc1cccc(-c2sc3ccccc3c2-c2ccc(OCCN3CCCC3)cc2)c1	AC50	2.58 µM (active)

====

molecular target: UniProtKB P08659; assay: firefly luciferase enzyme inhibitors, dose response, biochemical, luminescence (AID 1891)
Sequence (P08659 whole entry): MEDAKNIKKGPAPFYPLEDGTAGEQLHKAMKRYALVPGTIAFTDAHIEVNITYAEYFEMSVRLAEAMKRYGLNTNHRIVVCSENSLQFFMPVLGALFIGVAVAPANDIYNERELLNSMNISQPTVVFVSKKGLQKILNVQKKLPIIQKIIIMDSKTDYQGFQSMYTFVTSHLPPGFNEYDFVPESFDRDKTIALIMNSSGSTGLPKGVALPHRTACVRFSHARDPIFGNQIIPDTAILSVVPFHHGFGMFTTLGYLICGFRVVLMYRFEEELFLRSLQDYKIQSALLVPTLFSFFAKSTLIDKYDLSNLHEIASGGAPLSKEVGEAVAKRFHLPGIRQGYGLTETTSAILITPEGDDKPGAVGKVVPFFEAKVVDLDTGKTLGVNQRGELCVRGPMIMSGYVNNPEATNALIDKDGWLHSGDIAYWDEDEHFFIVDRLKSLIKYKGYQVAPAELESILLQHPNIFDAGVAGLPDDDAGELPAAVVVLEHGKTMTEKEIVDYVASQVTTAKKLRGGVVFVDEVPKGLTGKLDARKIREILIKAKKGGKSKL
Active and inactive are the calls of the source.
Listed below: EC50 values for each entry.
Observable: EC50

Compound	Observed
COc1ncnc2sc(-c3ccccc3)cc12	2.4 µM (active)
Cc1ccc2cccc(S(=O)(=O)N3CCCc4ccccc43)c2n1	34 µM (active)
COc1ccc(S(=O)(=O)N(Cc2cccnc2)Cc2cc3ccccc3nc2O)cc1	> 112 µM (not active)
CN(C(=O)Cn1nnc(-c2cccc(C(F)(F)F)c2)n1)C1CCCCC1	> 112 µM (not active)
C=CCN1C(=O)/C(=C2/Sc3ccccc3N2C)S/C1=N\c1c(C)n[nH]c1C	> 112 µM (not active)
COC(=O)Cn1/c(=N/C(=O)CSC(C)=O)sc2ccccc21	> 112 µM (not active)
CCOC(=O)C1CCCN(C(=O)c2ccc3oc(Cc4ccccc4)nc3c2)C1 (stereo not drawn)	> 112 µM (not active)
CCOc1ccc(Nc2nc(N)c3ccccc3n2)cc1	0.765 µM (active)

====

The entries below come with measured EC50 values attached.
biological target: Voltage-dependent T-type calcium channel subunit alpha-1H (Homo sapiens, UniProt O95180); format: functional;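 note: channel activity triggered by adding a high calcium stimulation buffer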
Sequence (O95180 whole entry): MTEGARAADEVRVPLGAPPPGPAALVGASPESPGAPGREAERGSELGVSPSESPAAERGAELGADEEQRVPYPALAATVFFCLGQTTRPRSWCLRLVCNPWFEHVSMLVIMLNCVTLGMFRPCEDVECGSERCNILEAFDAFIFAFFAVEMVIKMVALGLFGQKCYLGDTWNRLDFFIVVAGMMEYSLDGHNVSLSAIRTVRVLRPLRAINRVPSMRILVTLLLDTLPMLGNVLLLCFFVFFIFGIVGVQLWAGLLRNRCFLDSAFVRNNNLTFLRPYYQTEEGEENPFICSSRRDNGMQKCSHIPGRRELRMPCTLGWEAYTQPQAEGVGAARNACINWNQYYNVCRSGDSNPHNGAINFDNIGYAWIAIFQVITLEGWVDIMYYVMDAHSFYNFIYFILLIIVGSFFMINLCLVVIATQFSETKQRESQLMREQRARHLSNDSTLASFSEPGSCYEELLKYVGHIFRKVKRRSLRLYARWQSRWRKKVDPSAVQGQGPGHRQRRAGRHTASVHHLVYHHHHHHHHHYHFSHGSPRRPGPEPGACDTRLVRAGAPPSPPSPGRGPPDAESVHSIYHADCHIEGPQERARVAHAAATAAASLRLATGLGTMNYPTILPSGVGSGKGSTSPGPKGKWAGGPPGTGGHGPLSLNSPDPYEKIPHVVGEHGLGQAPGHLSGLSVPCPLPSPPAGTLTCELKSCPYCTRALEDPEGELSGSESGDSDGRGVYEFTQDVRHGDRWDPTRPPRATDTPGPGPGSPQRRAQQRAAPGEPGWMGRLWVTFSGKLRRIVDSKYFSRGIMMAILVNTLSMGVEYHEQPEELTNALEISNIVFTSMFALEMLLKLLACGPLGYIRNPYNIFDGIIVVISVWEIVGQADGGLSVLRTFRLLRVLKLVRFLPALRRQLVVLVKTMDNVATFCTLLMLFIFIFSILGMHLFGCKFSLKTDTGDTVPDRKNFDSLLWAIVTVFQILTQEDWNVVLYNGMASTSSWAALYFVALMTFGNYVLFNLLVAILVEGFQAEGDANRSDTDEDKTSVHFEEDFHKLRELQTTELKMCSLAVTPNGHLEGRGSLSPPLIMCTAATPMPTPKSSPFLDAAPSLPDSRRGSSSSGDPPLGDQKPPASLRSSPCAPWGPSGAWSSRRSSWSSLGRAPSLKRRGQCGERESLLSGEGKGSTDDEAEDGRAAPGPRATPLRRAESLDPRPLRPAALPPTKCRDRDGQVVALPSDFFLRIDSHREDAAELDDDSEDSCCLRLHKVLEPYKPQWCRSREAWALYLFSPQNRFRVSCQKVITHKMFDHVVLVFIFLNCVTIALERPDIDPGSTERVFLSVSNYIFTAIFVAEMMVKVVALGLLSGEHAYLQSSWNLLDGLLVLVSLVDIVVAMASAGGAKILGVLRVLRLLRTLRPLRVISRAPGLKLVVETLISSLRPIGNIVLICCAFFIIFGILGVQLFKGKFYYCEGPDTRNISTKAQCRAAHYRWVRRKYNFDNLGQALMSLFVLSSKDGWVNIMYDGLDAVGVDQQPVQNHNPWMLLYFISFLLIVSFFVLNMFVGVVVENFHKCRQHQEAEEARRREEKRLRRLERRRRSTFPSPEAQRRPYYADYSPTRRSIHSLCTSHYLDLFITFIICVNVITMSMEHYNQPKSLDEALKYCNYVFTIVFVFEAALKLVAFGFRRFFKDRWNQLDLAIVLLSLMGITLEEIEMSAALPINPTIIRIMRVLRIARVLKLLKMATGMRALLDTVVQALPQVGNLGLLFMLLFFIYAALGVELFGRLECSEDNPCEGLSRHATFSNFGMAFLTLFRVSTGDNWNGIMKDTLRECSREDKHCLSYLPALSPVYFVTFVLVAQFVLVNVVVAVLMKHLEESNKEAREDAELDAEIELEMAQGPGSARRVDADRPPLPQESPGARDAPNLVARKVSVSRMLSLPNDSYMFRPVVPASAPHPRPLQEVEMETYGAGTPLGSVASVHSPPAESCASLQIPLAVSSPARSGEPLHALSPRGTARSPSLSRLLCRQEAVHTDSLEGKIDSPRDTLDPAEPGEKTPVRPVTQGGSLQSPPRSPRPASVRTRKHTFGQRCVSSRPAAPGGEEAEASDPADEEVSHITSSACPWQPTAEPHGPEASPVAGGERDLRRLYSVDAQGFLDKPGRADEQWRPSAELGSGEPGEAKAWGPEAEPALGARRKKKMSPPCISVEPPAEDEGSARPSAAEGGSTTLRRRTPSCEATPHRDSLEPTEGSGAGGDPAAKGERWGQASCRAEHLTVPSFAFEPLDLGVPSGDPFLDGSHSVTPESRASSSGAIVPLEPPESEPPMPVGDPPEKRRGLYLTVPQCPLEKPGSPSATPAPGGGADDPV
Activity calls are given as the source filed them.
Observable: EC50

Compound	Observed
O=C(Nc1nc2ccccc2s1)C1CC(=O)N(c2ccccc2)C1 (stereo not drawn)	8.11 µM (active)
COc1ccccc1OCC(=O)N(Cc1nc(-c2ccccc2)no1)C1CCCCC1	5.55 µM (active)
Cc1c(C(=O)NCC2COc3ccccc3O2)oc2ccc(S(=O)(=O)N(C)C3CCCCC3)cc12 (stereo not drawn)	5.64 µM (active)
Cc1ccc(-c2nnn(CC(=O)N3CCCc4ccccc43)n2)cc1	3.43 µM (active)
O=C(Nc1ccccc1)c1ccccc1NS(=O)(=O)c1ccc(Cl)s1	1.05 µM (active)
CN(C)c1ccc(C(c2nnnn2CCOC(=O)Nc2ccc(Cl)cc2)N2CCOCC2)cc1 (stereo not drawn)	9.17 µM (active)
CC(C)Cn1c(SCC(=O)c2ccc(Cl)s2)nnc1-c1ccco1	10.6 µM (active)
CC/C(NCc1ccc2c(c1)OCO2)=C1/C(=O)NC(=O)N(C2CCCCC2)C1=O	5.15 µM (active)

====

biological target: Mucolipin-3 (Homo sapiens, UniProt Q8TDD5); assay: Dose response cell-based high-throughput screening assay for agonists of the transient receptor potential channel ML3 (TRPML3). [Related pubchem assays: 1526, 1424, 1448 ]; type: functional
Sequence (Q8TDD5 whole entry): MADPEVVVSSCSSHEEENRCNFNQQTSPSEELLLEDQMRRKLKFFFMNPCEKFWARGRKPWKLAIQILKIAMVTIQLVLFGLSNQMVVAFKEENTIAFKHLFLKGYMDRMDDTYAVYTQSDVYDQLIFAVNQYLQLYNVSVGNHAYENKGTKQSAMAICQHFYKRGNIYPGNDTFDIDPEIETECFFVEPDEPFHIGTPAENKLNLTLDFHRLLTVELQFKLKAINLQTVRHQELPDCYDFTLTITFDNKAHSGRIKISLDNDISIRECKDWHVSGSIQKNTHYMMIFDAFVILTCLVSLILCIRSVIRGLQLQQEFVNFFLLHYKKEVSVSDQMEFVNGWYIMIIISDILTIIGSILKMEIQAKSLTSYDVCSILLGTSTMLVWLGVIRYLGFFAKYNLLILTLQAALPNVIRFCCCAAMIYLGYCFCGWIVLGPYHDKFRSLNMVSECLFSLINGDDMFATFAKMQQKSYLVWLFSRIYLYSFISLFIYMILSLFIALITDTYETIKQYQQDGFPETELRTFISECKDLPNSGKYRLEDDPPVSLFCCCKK
Calls of active or inactive are those of the source.

Compound String	EC50
O=S(=O)(Cc1cc(Cl)nc(-c2ccccc2)n1)c1ccccc1	5.36 µM (active)
CCOc1ccc2c(c1)C(C)=CC(C)(C)N2S(=O)(=O)c1ccc(C)cc1	> 29.9 µM (not active)
Cc1ccc(S(=O)(=O)N2CCN(C)CC2)c(C)c1N(C)S(=O)(=O)c1ccc(Cl)cc1	3.34 µM (active)
CCOC(=O)C1=C(NC(=S)NC(=O)c2ccccc2)c2ccccc2CC1(C)C	5.5 µM (active)
